target: human TLR8 (Homo sapiens); experiment: TLR8 inhibition reporter assay (HEK-Blue SEAP); details: HEK-Blue cells overexpressing human TLR8, R848 15.9 μM, 22 hour incubation
Under this convention, 1 denotes IC50 strictly below 6 nM and -1 denotes IC50 at or above 6 nM.

Report whether reported IC50 is lower than 6 nM (strictly) for CCN1CCC(n2c(=O)[nH]c3cc(-c4cc(C)c5ncnn5c4)c(C)cc32)CC1 [Example 6]
-1

Param item: COCCNC1CCC(n2c(=O)[nH]c3cc(-c4cn5ncnc5c(OC)c4C)c(C(C)C)cc32)CC1 (centres unmarked) [Example 257]
1

Param item: COc1cc(-c2cc3[nH]c(=O)n(C4CCC(N5C6CCC5COC6)CC4)c3cc2C(C)C)cn2ncnc12 (single isomer, unassigned) [Example 253]
1

Param item: COc1cc(-c2cc3[nH]c(=O)n([C@@H]4CCCN(CC(C)(C)C)C4)c3cc2C)cn2ncnc12 [Example 71]
-1

Param item: Cc1cc2c(cc1-c1cc(C)c3ncnn3c1)[nH]c(=O)n2[C@@H]1CCCN(CC#N)C1 [Example 96]
-1

Param item: Cc1cc2c(cc1-c1cc(C)c3ncnn3c1)[nH]c(=O)n2[C@H]1CCCN(C(=O)CN(C)C)C1 [Example 103]
-1

Param item: COc1cc(-c2cc3[nH]c(=O)n([C@@H]4CCCN(C(C)C)C4)c3cc2C(C)C)cn2ncnc12 [Example 137]
1

Param item: COc1cc(-c2cc3[nH]c(=O)n(C4CCN(CC5CCOCC5)CC4)c3cc2C(C)C)cn2ncnc12 [Example 159]
1

Param item: CCc1cc2c(cc1-c1cc(OC)c3ncnn3c1)[nH]c(=O)n2[C@H]1CC[C@@H](NC(C)C)CC1 [Example 167]
1

Param item: CCC(CC)CN[C@H]1CC[C@@H](n2c(=O)[nH]c3cc(-c4cc(OC)c5ncnn5c4)c(C(C)C)cc32)CC1 [Example 194]
1

Param item: Cc1c(-c2cc3[nH]c(=O)n([C@H]4CC[C@@H](NC5CCOCC5)CC4)c3cc2C(C)C)cn2ncnc2c1C [Example 187]
1

Param item: CCC(CC)CN1CCC[C@@H](n2c(=O)[nH]c3cc(-c4cc(C)c5ncnn5c4)c(C)cc32)C1 [Example 45]
-1

Param item: CCc1cc2c(cc1-c1cc(OC)c3ncnn3c1)[nH]c(=O)n2[C@@H]1CCCN(C)C1 [Example 174]
1

Param item: COCCN1CCC(n2c(=O)[nH]c3cc(-c4cc(OC)c5ncnn5c4)c(C(C)C)cc32)CC1 [Example 223]
-1

Param item: Cc1c(-c2cc3[nH]c(=O)n([C@@H]4CCCN(C(C)C)C4)c3cc2C(C)C)cn2ncnc2c1C [Example 145]
1

Param item: Cc1c(-c2cc3[nH]c(=O)n(C4CCC(N5CC6(COC6)C5)CC4)c3cc2C(C)C)cn2ncnc2c1C (single isomer, unassigned) [Example 298]
1

Param item: COc1cc(-c2cc3[nH]c(=O)n(C4CCN(C5CCOC5)CC4)c3cc2C(C)C)cn2ncnc12 (centres unmarked) [Example 162]
-1

Param item: Cc1cc2c(cc1-c1cc(C)c3ncnn3c1)[nH]c(=O)n2[C@@H]1CCCN(CC2CC2)C1 [Example 37]
-1

Param item: CCN1CCC[C@@H](n2c(=O)[nH]c3cc(-c4cc(C)c5ncnn5c4)c(C)cc32)C1 [Example 16]
-1

Param item: CCCN1CCC[C@@H](n2c(=O)[nH]c3cc(-c4cc(OC)c5ncnn5c4)c(C)cc32)C1 [Example 54]
-1

Param item: COc1cc(-c2cc3[nH]c(=O)n([C@H]4CC[C@@H](NC5CCCCC5)CC4)c3cc2C)cn2ncnc12 [Example 62]
1

Param item: COc1cc(-c2cc3[nH]c(=O)n([C@@H]4CCCN(C(C)C)C4)c3cc2C(F)(F)F)cn2ncnc12 [Example 111]
-1

Param item: COc1cc(-c2cc3[nH]c(=O)n(C4CCC(N5CC6(C5)CS(=O)(=O)C6)CC4)c3cc2C(C)C)cn2ncnc12 (single isomer, unassigned) [Example 244]
1

Param item: COc1cc(-c2cc3[nH]c(=O)n([C@@H]4CCCN(CC5CC5)C4)c3cc2C)cn2ncnc12 [Example 55]
-1

Param item: CCN[C@H]1CC[C@H](n2c(=O)[nH]c3cc(-c4cc(C)c5ncnn5c4)c(C)cc32)CC1 [Example 24]
-1

Param item: COc1cc(-c2cc3[nH]c(=O)n([C@H]4CCCN(CC5CC5)C4)c3cc2C(C)C)cn2ncnc12 (single isomer, unassigned) [Example 128]
1

Param item: COc1cc(-c2cc3[nH]c(=O)n(C4CCN(C5CCOCC5)CC4)c3cc2C(C)C)cn2ncnc12 [Example 158]
-1

Param item: COc1cc(-c2cc3[nH]c(=O)n([C@@H]4CCCNC4)c3cc2C)cn2ncnc12 [1 EH]
-1

* * *

biological target: human TLR9 (Homo sapiens); construct: host or cells: HEK-Blue cells; experiment: TLR9 inhibition reporter assay (HEK-Blue SEAP); type: cell-based; details: HEK-Blue cells overexpressing human TLR9, ODN2006 5 nM, 22 hour incubation
Sequence (Q9NR96 26-1032): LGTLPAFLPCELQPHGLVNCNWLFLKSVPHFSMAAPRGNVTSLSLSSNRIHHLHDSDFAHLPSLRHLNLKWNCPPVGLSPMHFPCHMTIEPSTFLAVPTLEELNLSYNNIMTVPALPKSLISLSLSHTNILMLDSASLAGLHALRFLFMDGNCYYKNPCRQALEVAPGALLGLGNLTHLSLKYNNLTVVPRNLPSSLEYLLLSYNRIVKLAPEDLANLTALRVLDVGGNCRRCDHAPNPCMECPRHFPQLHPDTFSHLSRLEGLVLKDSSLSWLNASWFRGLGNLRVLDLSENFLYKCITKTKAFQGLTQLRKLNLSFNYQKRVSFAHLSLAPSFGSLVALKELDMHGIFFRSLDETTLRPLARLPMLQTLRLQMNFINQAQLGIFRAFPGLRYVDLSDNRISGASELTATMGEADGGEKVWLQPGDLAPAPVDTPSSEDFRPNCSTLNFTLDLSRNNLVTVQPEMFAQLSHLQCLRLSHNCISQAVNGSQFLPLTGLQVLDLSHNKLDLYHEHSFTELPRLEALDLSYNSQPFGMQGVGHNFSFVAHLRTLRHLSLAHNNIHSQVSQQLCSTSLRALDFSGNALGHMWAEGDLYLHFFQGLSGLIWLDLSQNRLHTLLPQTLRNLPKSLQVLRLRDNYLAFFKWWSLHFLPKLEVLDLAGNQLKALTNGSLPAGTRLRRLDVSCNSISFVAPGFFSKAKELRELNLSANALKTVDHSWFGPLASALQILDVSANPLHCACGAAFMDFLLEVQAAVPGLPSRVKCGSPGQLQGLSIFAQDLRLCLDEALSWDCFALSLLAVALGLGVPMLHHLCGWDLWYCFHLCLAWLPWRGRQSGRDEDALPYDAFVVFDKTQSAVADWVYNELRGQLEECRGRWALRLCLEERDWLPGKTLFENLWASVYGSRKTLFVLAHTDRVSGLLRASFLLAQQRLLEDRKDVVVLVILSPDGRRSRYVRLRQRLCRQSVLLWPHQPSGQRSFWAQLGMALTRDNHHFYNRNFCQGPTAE
pIC50: −log10 of the molar value.
Label rule, in plain words: pIC50 of 5 and up is satisfied, under 5 is not satisfied.

API: above_or_equal(metric=pIC50, cutoff=5) for item `Cc1cc2c(cc1-c1cc(C)c3ncnn3c1)[nH]c(=O)n2C1CCN(C(=O)CN(C)C)CC1`
satisfied

Param item: `COc1cc(-c2cc3[nH]c(=O)n([C@H]4CC[C@@H](NC5CCCC5)CC4)c3cc2C)cn2ncnc12`
satisfied

Param item: `COc1ncc(CN2CCC[C@H](n3c(=O)[nH]c4cc(-c5cc(C)c6ncnn6c5)c(C)cc43)C2)cn1`
not satisfied

Param item: `CCc1cc2c(cc1-c1cc(OC)c3ncnn3c1)[nH]c(=O)n2[C@@H]1CCCN(C(C)C)C1`
satisfied

Param item: COc1cc(-c2cc3[nH]c(=O)n([C@H]4CCCN(CC5CC5)C4)c3cc2C(C)C)cn2ncnc12 [Example 127]
not satisfied

Param item: Cc1cc2c(cc1-c1cc(C)c3ncnn3c1)[nH]c(=O)n2C1CCCNC1 (stereo not shown)
satisfied

* * *

Molecular target: human TLR8 (Homo sapiens, UniProt Q9NR97)
Sequence (Q9NR97 27-1041): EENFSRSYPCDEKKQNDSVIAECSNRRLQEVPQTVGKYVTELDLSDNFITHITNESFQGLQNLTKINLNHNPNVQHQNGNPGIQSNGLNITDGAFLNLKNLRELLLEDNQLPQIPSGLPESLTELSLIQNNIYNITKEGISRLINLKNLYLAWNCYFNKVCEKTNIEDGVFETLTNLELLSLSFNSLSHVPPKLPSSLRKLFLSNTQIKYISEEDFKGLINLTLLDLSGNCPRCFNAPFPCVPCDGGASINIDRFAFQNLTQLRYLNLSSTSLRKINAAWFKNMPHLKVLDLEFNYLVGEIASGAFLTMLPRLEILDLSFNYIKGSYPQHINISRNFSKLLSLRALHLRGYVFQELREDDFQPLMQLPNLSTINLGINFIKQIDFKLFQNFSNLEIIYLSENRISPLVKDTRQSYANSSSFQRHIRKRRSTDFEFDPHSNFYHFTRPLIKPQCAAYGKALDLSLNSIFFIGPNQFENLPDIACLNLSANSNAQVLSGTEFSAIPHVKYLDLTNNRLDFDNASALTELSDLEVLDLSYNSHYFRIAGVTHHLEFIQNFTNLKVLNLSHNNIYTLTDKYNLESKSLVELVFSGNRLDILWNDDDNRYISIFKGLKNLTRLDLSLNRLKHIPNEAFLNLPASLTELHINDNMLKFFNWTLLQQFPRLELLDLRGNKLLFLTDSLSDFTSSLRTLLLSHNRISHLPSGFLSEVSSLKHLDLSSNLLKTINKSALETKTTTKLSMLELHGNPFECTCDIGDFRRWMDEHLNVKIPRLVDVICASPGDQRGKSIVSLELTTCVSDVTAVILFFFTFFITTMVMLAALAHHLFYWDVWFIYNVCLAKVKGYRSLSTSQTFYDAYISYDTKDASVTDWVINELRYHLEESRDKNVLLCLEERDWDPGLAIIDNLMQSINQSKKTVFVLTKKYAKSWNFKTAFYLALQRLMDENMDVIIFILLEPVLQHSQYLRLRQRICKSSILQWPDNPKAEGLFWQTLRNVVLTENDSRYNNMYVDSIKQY
Assay: TLR8 inhibition reporter assay (HEK-Blue SEAP)
Details: HEK-Blue cells overexpressing human TLR8, R848 15.9 μM, 22 hour incubation
Excerpt: TLR7/8/9 Inhibition Reporter Assays HEK-Blue™-cells (Invivogen) overexpressing human TLR7, TLR8 or TLR9 receptors were used for screening inhibitors of these receptors using an inducible SEAP (secreted embryonic alkaline phosphatase) reporter gene under the control of the IFN-β minimal promoter fused to five NF-κB and AP-1-binding sites. […]
endpoint_label: pIC50
Note on pIC50: it is the negative log10 of concentration, concentration in mol/L.

Which pIC50 is reported with human TLR8 (Homo sapiens, UniProt Q9NR97) for this entry: COc1cc(-c2cc3[nH]c(=O)n(C4CCC(N5CC6(CCOCC6)C5)CC4)c3cc2C(C)C)cn2ncnc12 (single isomer, unassigned) [Example 235] ?
9.41

Param item: `CNC(=O)CN1CCC(n2c(=O)[nH]c3cc(-c4cc(OC)c5ncnn5c4)c(C)cc32)CC1`
6.42

Param item: `Cc1cc2c(cc1-c1cc(C)c3ncnn3c1)[nH]c(=O)n2[C@H]1CC[C@@H](NCCC(F)(F)F)CC1`
8.88

Param item: `COc1cc(-c2cc3[nH]c(=O)n(C4CCN(C(C)C)CC4)c3cc2C)cn2ncnc12`
7.05
